# Protocol notes: folding stability dG unfold from trypsin proteolysis; higher = more stable
Each entry below carries its recorded folding stability dG unfold.

# count of solved cases: 3
Seq text	Measured parameter	Experimental value
SAGTIWIPVDELKELGIPPGDTAEEFKQQISDRLMEQGWTVKIPDIEVEPLDPNDGRVWVRINIEFKPPSAG [r5_23_TrROS]	folding stability dG unfold	1.26 kcal/mol
SAGGSAGGSANSSSLPPNYVTPLPITVTDSRPGSYMPLEEREARAQALAEANPGVTVTVVRESAGGSAGGSA [r18_499_JUSTAS]	folding stability dG unfold	-0.373 kcal/mol
SAGSMKTEEKTEEVPPVTLPFGPSVRVRRVTTTITDPSTGKIKEVTVELFDPAGRRRVDPVKKVPVELLSAG [r14_631_JUSTAS]	folding stability dG unfold	0.794 kcal/mol

// folding stability dG unfold lookup, key: SAGGSAGGSMKRLPDGNLVVKLNNGSTWSVITIPVSPDESEEEIKQRLKELFGPNYPEYDISESAGGSAGGS [r12_300_JUSTAS]
1.08 kcal/mol

====

Each entry below carries its recorded folding stability dG unfold.
# Protocol notes: folding stability dG unfold from chymotrypsin proteolysis; higher = more stable
// note: answer is a bare numeric in kcal/mol

Seq text	Measured parameter	Experimental value
SAGGSAGGSAGGHYIRAEIEIKYEHPGNGQEQTMTIPIEIPIPPPPPVSAEDRAKQNGIGSAGGSAGGSAGG [r7_79_TrROS]	folding stability dG unfold	0.855
SMTVVIDIPPEVPVPGSGSVRPVPVEEVLKRVEEAMAKGKKVVVTGRDPKHPLVQEVAARLEELGVEVVGSA [r9_468_JUSTAS]	folding stability dG unfold	0.71
SAGGSAGGSAGGAPEKEVTVRVRITVFRDGKPVEEIELEPGQTLTFPPGARVVIEVELLPSAGGSAGGSAGG [r7_141_TrROS_Hall]	folding stability dG unfold	3.51

// folding stability dG unfold lookup, key: SAGGSAGGSSFSVEVIENPDSDVILRKIHFDNFTVIPLFDPSTGKIVSVVVQFPDGSWYTFPLSAGGSAGGS [r12_563_TrMRF]
2.78

====

Each entry below carries its recorded folding stability dG unfold.
# Protocol notes: folding stability dG unfold (combined trypsin and chymotrypsin); higher = more stable
// note: answer is a bare numeric in kcal/mol

Seq text	Experimental value
KIKELAKKLGLNVTVKVEKKPIKNPDGSTYTITKVEVTVDKKNKTITIKVEVKNKKTNKTITKTYTIKLKKS [r1_448_TrROS_Hall]	2.64
SAMEKPLETLEIPIPGLPVTVKITIYPSHIEKAKESGIPEITVEALLTIELPDGSKVEKKIPLTVKIPGSAG [r14_100_JUSTAS]	1.61
SAGGSAGGSPESVTFPVGDYLVTVTRNPEDGSLTVTVYDPKTGKPIVLPPEVLAENPDLAENLSAGGSAGGS [r12_817_TrMRF]	2.68

Here is another sequence to look at.
// folding stability dG unfold lookup, key: SKIEIDEFPWERNPDDGYATIQIKIKVRDPDKKKKDIPHEFPPGSSPDQFWDQIENRAQNNGIKDVEISWSA [r9_1203_TrROS]
0.032

====

# Protocol notes: folding stability dG unfold from trypsin proteolysis; higher = more stable
Could you label it Condition met if measured folding stability dG unfold is 2 kcal/mol or higher, and Condition not met otherwise?

Solved entries:
Seq text	Class name
SAGGSAGGSAGPITVPPGAVLLSVEEEGERTRVTVRLPGSGVVETYTFEPGEPVVVELPGSAGGSAGGSAGG [r11_774_JUSTAS]	Condition met
SAGKVKIVKIDKGKNKITIEFYDDGKKIATIPFPPNFPNTKVIAEVNEDGSIKVTFISGDKPIEITIDASAG [r5_533_TrMRF]	Condition met
SAGGSAGGSAKPNNAELVKVTYDPETGDFYAFYKIKNTDTVYVLRFNKDGTVEVKEYKFSEASAGGSAGGSA [r18_521_TrMRF]	Condition met
SAGGSAGGSAAYTTPDGTNIILKDPNRPVVSLYKKDPSTNTWTPVSTLPISEVPEEILELLSAGGSAGGSAG [r3_241_JUSTAS]	Condition not met
SAGGSAGGSAGSMTVTVTGGGVSVEVYPETGLVRVRSPSGSETLVDIATGEVVRREPAAASAGGSAGGSAGG [r11_149_JUSTAS]	Condition not met

Hi team, for SAGGSVIVKLPNGKILEVSPSELAGYKPGAAVKFPDGTAQVVNPETDEVIDIPIDSPEKIIEAIKKAASAGG [r13_962_TrMRF] , is the recorded folding stability dG unfold at or above 2 kcal/mol?
Condition not met

Hi team, for SMVKIYFPNAPPELVAEAIEKHPDSTVEIYFEPGKPDVFESILKDYDVEVEPFPTEDGRLLVKARVKVPGSA [r9_1138_TrMRF] , is the recorded folding stability dG unfold at or above 2 kcal/mol?
Condition met
